Ref: ChEMBL document CHEMBL4715760

# tgt: Tyrosine-protein kinase Fyn (Homo sapiens) (UniProt P06241)
# Sequence (P06241 2-537 limits assumed): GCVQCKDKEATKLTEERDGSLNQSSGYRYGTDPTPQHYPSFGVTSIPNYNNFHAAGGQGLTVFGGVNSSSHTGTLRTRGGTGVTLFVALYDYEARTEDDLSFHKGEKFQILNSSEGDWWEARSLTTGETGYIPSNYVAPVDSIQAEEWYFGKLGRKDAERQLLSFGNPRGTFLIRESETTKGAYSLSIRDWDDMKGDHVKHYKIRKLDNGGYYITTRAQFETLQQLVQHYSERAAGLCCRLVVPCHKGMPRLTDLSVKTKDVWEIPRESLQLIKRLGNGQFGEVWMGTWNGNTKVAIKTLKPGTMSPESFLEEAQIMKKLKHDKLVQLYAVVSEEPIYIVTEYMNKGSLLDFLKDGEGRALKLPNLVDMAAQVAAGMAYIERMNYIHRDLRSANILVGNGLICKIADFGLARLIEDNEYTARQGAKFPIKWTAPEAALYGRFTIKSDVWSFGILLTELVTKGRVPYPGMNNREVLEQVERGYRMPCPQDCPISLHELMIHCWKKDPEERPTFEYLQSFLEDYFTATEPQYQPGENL
# protocol-notes: Inhibition of recombinant human C-terminal His-tagged full length FYN expressed in baculovirus expression system at 500 nM using Tyr 02 peptide as substrate incubated for 1 hr in presence of ATP at its Km concentration by Z'-LYTE assay relative to control
measure-name: inhibition (%)

Worked examples follow.
structure-smiles | tgt | inhibition (%)
OCC[C@@H](Nc1ncnc2[nH]c(-c3ccccc3)cc12)c1ccccc1 | Tyrosine-protein kinase Fyn (Homo sapiens) (UniProt P06241) | 26
CCOc1ccccc1-c1cc2c(N[C@H](CO)c3ccccc3)ncnc2[nH]1 | Tyrosine-protein kinase Fyn (Homo sapiens) (UniProt P06241) | 34
COc1ccccc1-c1cc2c(N[C@H](CO)c3ccccc3)ncnc2[nH]1 | Tyrosine-protein kinase Fyn (Homo sapiens) (UniProt P06241) | 27

[I] OC[C@@H](Nc1ncnc2[nH]c(-c3ccccc3)cc12)c1ccccc1
[II] CN(C)CCNCc1ccc(-c2cc3c(N[C@H](CO)c4ccccc4)ncnc3[nH]2)cc1F
Query :: Smaller inhibition value, I vs II ? Output the label that corresponds to your choice.
Result :: I
(I: 27%, II: 55%)
